assay: Pharmacokinetic test in SD male rats (Experimental Examples 11, 12, 15); assay type: in vivo; conditions: rat, plasma, iv, 2 mg/kg, 2 mg/kg (Exp. 12-1)
property label: half-life (h)
Numbers only, in h.

Endpoint output: half-life of O[C@@H]1[C@H](O)CS[C@H]1n1cnc2c(NCc3cccc(Cl)c3)nc(Cl)nc21 . Value? 6

* * *

Test: Pharmacokinetic test in SD male rats (Experimental Examples 11, 12, 15)
Assay type: in vivo
Conditions: plasma, iv, rat, I.V., 5 mg/kg
Protocol: Intravenous administration was performed through a tube inserted into the femoral vein, and oral administration was performed using oral gavage. After the administration, the experimental animals' blood was taken at predetermined time intervals for 24 hours. Then, the blood was centrifuged to separate plasma. The plasma samples were pretreated with a suitable organic solvent, and then the concentration of the plasma samples was analyzed by LC-MS/MS. […]
property label: clearance (mL/min/kg)
Numbers only, in mL/min/kg.

Endpoint output: clearance of O[C@@H]1[C@H](O)CS[C@H]1n1cnc2c(NCc3cccc(Cl)c3)nc(Cl)nc21 . Value? 6.05

* * *

experiment: Pharmacokinetic test in dogs (Experimental Example 14); format: in vivo; details: dog, plasma, po, 10 mg/kg, G3, PO, powder state in a capsule
property label: AUC(0-inf) (ng·h/mL)
Answers are plain numbers, in ng·h/mL.

Endpoint output: AUC(0-inf) of O[C@@H]1[C@H](O)CS[C@H]1n1cnc2c(NCc3cccc(Cl)c3)nc(Cl)nc21 . Value? 6350

* * *

test: Pharmacokinetic test in SD male rats (Experimental Examples 11, 12, 15); assay type: in vivo; details: rat, plasma, iv, 5 mg/kg, I.V., 5 mg/kg (Exp. 11-1)
property label: half-life

Endpoint output: half-life of O[C@@H]1[C@H](O)CS[C@H]1n1cnc2c(NCc3cccc(Cl)c3)nc(Cl)nc21 . Value? 3.6 h

* * *

test: Plasma stability, rat plasma; type: in vitro ADME
property label: Plasma stability

Endpoint output: Plasma stability of O[C@@H]1[C@H](O)CS[C@H]1n1cnc2c(NCc3cccc(Cl)c3)nc(Cl)nc21 . Value? > 99.9%

* * *

experiment: Pharmacokinetic test in ICR male mice (Experimental Example 13); format: in vivo; settings: mouse, plasma, po, P.O., 10 mg/kg
property label: AUC(0-inf) (µg·h/mL)
Answers are plain numbers, in µg·h/mL.

Endpoint output: AUC(0-inf) of O[C@@H]1[C@H](O)CS[C@H]1n1cnc2c(NCc3cccc(Cl)c3)nc(Cl)nc21 [Example 2] . Value? 102

* * *

experiment: Plasma protein binding, human plasma; assay type: in vitro ADME
property label: fraction unbound
Numbers only.

Endpoint output: fraction unbound of O[C@@H]1[C@H](O)CS[C@H]1n1cnc2c(NCc3cccc(Cl)c3)nc(Cl)nc21 . Value? 0.013

* * *

Test: Pharmacokinetic test in SD male rats (Experimental Examples 11, 12, 15)
Format: in vivo
Conditions: rat, plasma, po, 10 mg/kg, oral 10 mg/kg in 0.5% MC (Exp. 15-1)
Method: Intravenous administration was performed through a tube inserted into the femoral vein, and oral administration was performed using oral gavage. After the administration, the experimental animals' blood was taken at predetermined time intervals for 24 hours. Then, the blood was centrifuged to separate plasma. The plasma samples were pretreated with a suitable organic solvent, and then the concentration of the plasma samples was analyzed by LC-MS/MS. […]
property label: AUC(0-t) (ng·h/mL)
One number for each entry, in ng·h/mL.

Endpoint output: AUC(0-t) of O[C@@H]1[C@H](O)CS[C@H]1n1cnc2c(NCc3cccc(Cl)c3)nc(Cl)nc21 [Example 2] . Value? 40100
